- Test system: TK-10 renal
- Test summary: NCI tumour cell line growth inhibition, 48 h
Measured metric: TGI

COc1ccc(-c2nc3cc(C(F)(F)F)ccc3n2CC2CCCN3CCCCC23)cc1 (stereo not drawn) | 30.2 µM

Just so you know, measured TGI for Cc1cc2c(C(C)C)c(O)c(O)c(C=Nc3ccccc3)c2c(O)c1-c1c(C)cc2c(C(C)C)c(O)c(O)c(C=Nc3ccccc3)c2c1O came out at > 100 µM

Recorded TGI (molecule O=S(=O)(O)c1ccccc1N=Nc1ccc(N=Nc2c(O)ccc3ccccc23)c(S(=O)(=O)O)c1 ): > 100 µM

The molecule COc1ccc2nccc(/C=C/c3ccnc4ccc(OC)cc34)c2c1 showed TGI equal to > 63.4 µM
